Target: Autotaxin (Homo sapiens) (UniProt Q13822)
Experiment: Inhibition of autotaxin assessed as residual enzyme activity at 10 uM relative to control
property: Activity (%)

molecule="CCCCCCCCCCCCCCCC(=O)N[C@@H](Cc1ccccc1)C(O)CP(=O)(O)O (single isomer, unassigned; diastereomer a)" reading=70
molecule=CCCCCCCCCCCCCCCC(=O)N[C@@H](Cc1c[nH]c2ccccc12)C(=O)CP(=O)(O)O reading=70
molecule="CCCCCCCCCCCCCCCC(=O)N[C@@H](CC(C)C)C(O)CP(=O)(O)O (single isomer, unassigned; diastereomer a)" reading=53
molecule=CCCCCCCCCCCCCCCC(=O)N[C@@H](CC(C)C)C(=O)CP(=O)(O)O reading=48

====

Target: Autotaxin (Homo sapiens) (UniProt Q13822)
Experiment: Inhibition of autotaxin assessed as residual enzyme activity at 100 uM relative to control
property: Activity (%)

compound="CCCCCCCCCCCCCCCC(=O)NCC(O)CP(=O)(O)O (stereo not drawn)" property=Activity reading=56
compound=CCCCCCCCCCCCCCCC(=O)N[C@@H](Cc1ccc(OCc2ncc(C)c(OC)c2C)cc1)C[C@H](O)P(=O)(O)O property=Activity reading=87
compound="CCCCCCCCCCCCCCCC(=O)N[C@@H](COCc1ccccc1)C(O)CP(=O)(O)O (single isomer, unassigned; diastereomer b)" property=Activity reading=61
compound="CCCCCCCCCCCCCCCC(=O)N1CCCC1C(=O)CP(=O)(O)O (stereo not drawn)" property=Activity reading=9
compound="CCCCCCCCCCCCCCCC(=O)N[C@@H](C(C)C)C(O)CP(=O)(O)O (single isomer, unassigned; diastereomer a)" property=Activity reading=13
compound="CCCCCCCCCCCCCCCC(=O)N[C@@H](Cc1c[nH]c2ccccc12)C(O)CP(=O)(O)O (single isomer, unassigned; diastereomer a)" property=Activity reading=25
compound="CCCCCCCCCCCCCCCC(=O)N[C@@H](C)C(O)CP(=O)(O)O (mixture of isomers)" property=Activity reading=25
compound="CCCCCCCCCCCCCCCC(=O)N[C@@H](CC(C)C)C(O)CP(=O)(O)O (single isomer, unassigned; diastereomer a)" property=Activity reading=23

====

Molecular target: Autotaxin (Homo sapiens) (UniProt Q13822)
Assay: Inhibition of autotaxin assessed as residual enzyme activity at 1 uM relative to control
Would you mind sorting the entries by Activity according to these classes? low (below 70%), moderate (70% to below 90%), high (90% or more)

compound=CCCCCCCCCCCCCCCC(=O)N[C@@H](C)C(=O)CP(=O)(O)O labelvalue=low
compound=CCCCCCCCCCCCCCCC(=O)N[C@@H](Cc1ccc(OCc2ncc(C)c(OC)c2C)cc1)C[C@H](O)P(=O)(O)O labelvalue=moderate
compound="CCCCCCCCCCCCCCCC(=O)N[C@@H](COCc1ccccc1)C(O)CP(=O)(O)O (single isomer, unassigned; diastereomer b)" labelvalue=moderate
compound="CCCCCCCCCCCCCCCC(=O)N[C@@H](Cc1c[nH]c2ccccc12)C(O)CP(=O)(O)O (stereo in doubt; 42)" labelvalue=high
compound="CCCCCCCCCCCCCCCC(=O)N[C@@H](C)C(O)CP(=O)(O)O (mixture of isomers)" labelvalue=low
compound="CCCCCCCCCCCCCCCC(=O)N[C@@H](Cc1cn(Cc2ccccc2)c2ccccc12)C(O)CP(=O)(O)O (mixture of isomers)" labelvalue=moderate
compound="CCCCCCCCCCCCCCCC(=O)N[C@@H](Cc1cn(Cc2ncc(C)c(OC)c2C)c2ccccc12)C(O)CP(=O)(O)O (mixture of isomers)" labelvalue=low
compound="CCCCCCCCCCCCCCCC(=O)N[C@@H](C(C)C)C(O)CP(=O)(O)O (single isomer, unassigned; diastereomer a)" labelvalue=high
compound="CCCCCCCCCCCCCCCC(=O)N[C@@H](COCc1ccccc1)C(O)CP(=O)(O)O (stereo in doubt; 45)" labelvalue=moderate
compound="CCCCCCCCCCCCCCCC(=O)N1CCCC1C(=O)CP(=O)(O)O (stereo not given)" labelvalue=low
compound="CCCCCCCCCCCCCCCC(=O)N[C@@H](CC(C)C)C(O)CP(=O)(O)O (single isomer, unassigned; diastereomer b)" labelvalue=high

====

Target: Autotaxin (Homo sapiens) (UniProt Q13822)
Assay: Inhibition of autotaxin assessed as residual enzyme activity at 10 uM relative to control
property: Activity (%)

molecule="CCCCCCCCCCCCCCCC(=O)NCC(O)CP(=O)(O)O (stereo not given)" property=Activity reading=88
molecule=CCCCCCCCCCCCCCCC(=O)N[C@@H](C)C(=O)CP(=O)(O)O property=Activity reading=67
molecule="CCCCCCCCCCCCCCCC(=O)N[C@@H](CC(C)C)C(O)CP(=O)(O)O (single isomer, unassigned; diastereomer b)" property=Activity reading=64
molecule=CCCCCCCCCCCCCCCC(=O)NCC(=O)CP(=O)(O)O property=Activity reading=95
molecule="CCCCCCCCCCCCCCCC(=O)N[C@@H](Cc1cn(Cc2ncc(C)c(OC)c2C)c2ccccc12)C(O)CP(=O)(O)O (mixture of isomers)" property=Activity reading=28

====

Target: Autotaxin (Homo sapiens) (UniProt Q13822)
Assay: Inhibition of autotaxin assessed as residual enzyme activity at 100 uM relative to control
Activity of 50% or higher: Satisfied. Under 50%: Not satisfied.

compound=CCCCCCCCCCCCCCCC(=O)N[C@@H](CC(C)C)C(=O)CP(=O)(O)O labelvalue="Not satisfied"
compound=CCCCCCCCCCCCCCCC(=O)NCC(=O)CP(=O)(O)O labelvalue=Satisfied
compound=CCCCCCCCCCCCCCCC(=O)N[C@@H](Cc1ccc(OCc2ncc(C)c(OC)c2C)cc1)C[C@@H](O)P(=O)(O)O labelvalue=Satisfied
compound="CCCCCCCCCCCCCCCC(=O)N[C@@H](Cc1c[nH]c2ccccc12)C(O)CP(=O)(O)O (stereo in doubt; 42)" labelvalue="Not satisfied"
compound=CCCCCCCCCCCCCCCC(=O)N[C@@H](C)C(=O)CP(=O)(O)O labelvalue=Satisfied
compound=CCCCCCCCCCCCCCCC(=O)N[C@@H](Cc1c[nH]c2ccccc12)C(=O)CP(=O)(O)O labelvalue="Not satisfied"
compound="CCCCCCCCCCCCCCCC(=O)N[C@@H](Cc1ccc(OCc2ncc(C)c(OC)c2C)cc1)C(F)CP(=O)(O)O (some centres not stated)" labelvalue="Not satisfied"
compound=CCCCCCCCCCCCCCCC(=O)N[C@H](C(=O)CP(=O)(O)O)C(C)C labelvalue="Not satisfied"
compound="CCCCCCCCCCCCCCCC(=O)N[C@@H](Cc1ccc(OCc2ncc(C)c(OC)c2C)cc1)CC(F)P(=O)(O)O (mixture of isomers)" labelvalue="Not satisfied"
compound="CCCCCCCCCCCCCCCC(=O)N[C@@H](Cc1cn(Cc2ccccc2)c2ccccc12)C(O)CP(=O)(O)O (mixture of isomers)" labelvalue="Not satisfied"
compound="CCCCCCCCCCCCCCCC(=O)N[C@@H](Cc1ccccc1)C(O)CP(=O)(O)O (stereo in doubt; 37)" labelvalue=Satisfied
compound="CCCCCCCCCCCCCCCC(=O)N[C@@H](CC(C)C)C(O)CP(=O)(O)O (single isomer, unassigned; diastereomer b)" labelvalue=Satisfied
compound="CCCCCCCCCCCCCCCC(=O)N[C@@H](Cc1ccccc1)C(O)CP(=O)(O)O (single isomer, unassigned; diastereomer a)" labelvalue=Satisfied
compound="CCCCCCCCCCCCCCCC(=O)N[C@@H](C(C)C)C(O)CP(=O)(O)O (stereo in doubt; 32)" labelvalue="Not satisfied"
compound="CCCCCCCCCCCCCCCC(=O)N1CCCC1C(O)CP(=O)(O)O (configuration not stated)" labelvalue="Not satisfied"
compound="CCCCCCCCCCCCCCCC(=O)N[C@@H](Cc1cn(Cc2ncc(C)c(OC)c2C)c2ccccc12)C(O)CP(=O)(O)O (mixture of isomers)" labelvalue="Not satisfied"
compound="CCCCCCCCCCCCCCCC(=O)N[C@@H](COCc1ccccc1)C(O)CP(=O)(O)O (stereo in doubt; 45)" labelvalue="Not satisfied"

====

Target: Autotaxin (Homo sapiens)
Experiment: Inhibition of autotaxin assessed as residual enzyme activity at 10 uM relative to control
property: Activity (%)

molecule=CCCCCCCCCCCCCCCC(=O)N[C@H](C(=O)CP(=O)(O)O)C(C)C assayedsystem="Autotaxin (Homo sapiens)" property=Activity unitslabel=% reading=77
molecule="CCCCCCCCCCCCCCCC(=O)N[C@@H](COCc1ccccc1)C(O)CP(=O)(O)O (stereo in doubt; 45)" assayedsystem="Autotaxin (Homo sapiens)" property=Activity unitslabel=% reading=41
molecule="CCCCCCCCCCCCCCCC(=O)N[C@@H](C(C)C)C(O)CP(=O)(O)O (stereo in doubt; 32)" assayedsystem="Autotaxin (Homo sapiens)" property=Activity unitslabel=% reading=78
molecule="CCCCCCCCCCCCCCCC(=O)N[C@@H](COCc1ccccc1)C(O)CP(=O)(O)O (single isomer, unassigned; diastereomer b)" assayedsystem="Autotaxin (Homo sapiens)" property=Activity unitslabel=% reading=46
molecule="CCCCCCCCCCCCCCCC(=O)N[C@@H](Cc1cn(Cc2ccccc2)c2ccccc12)C(O)CP(=O)(O)O (mixture of isomers)" assayedsystem="Autotaxin (Homo sapiens)" property=Activity unitslabel=% reading=35
molecule=CCCCCCCCCCCCCCCC(=O)N[C@@H](Cc1ccc(OCc2ncc(C)c(OC)c2C)cc1)C[C@H](O)P(=O)(O)O assayedsystem="Autotaxin (Homo sapiens)" property=Activity unitslabel=% reading=68
molecule="CCCCCCCCCCCCCCCC(=O)N[C@@H](Cc1ccc(OCc2ncc(C)c(OC)c2C)cc1)C(F)CP(=O)(O)O (stereo partly specified)" assayedsystem="Autotaxin (Homo sapiens)" property=Activity unitslabel=% reading=22
molecule=CCCCCCCCCCCCCCCC(=O)N[C@@H](Cc1ccc(OCc2ncc(C)c(OC)c2C)cc1)C[C@@H](O)P(=O)(O)O assayedsystem="Autotaxin (Homo sapiens)" property=Activity unitslabel=% reading=70
molecule="CCCCCCCCCCCCCCCC(=O)N[C@@H](Cc1c[nH]c2ccccc12)C(O)CP(=O)(O)O (stereo in doubt; 42)" assayedsystem="Autotaxin (Homo sapiens)" property=Activity unitslabel=% reading=75
molecule="CCCCCCCCCCCCCCCC(=O)N[C@@H](C(C)C)C(O)CP(=O)(O)O (single isomer, unassigned; diastereomer a)" assayedsystem="Autotaxin (Homo sapiens)" property=Activity unitslabel=% reading=57
molecule="CCCCCCCCCCCCCCCC(=O)N[C@@H](Cc1c[nH]c2ccccc12)C(O)CP(=O)(O)O (single isomer, unassigned; diastereomer a)" assayedsystem="Autotaxin (Homo sapiens)" property=Activity unitslabel=% reading=51
molecule="CCCCCCCCCCCCCCCC(=O)N1CCCC1C(O)CP(=O)(O)O (stereo unspecified)" assayedsystem="Autotaxin (Homo sapiens)" property=Activity unitslabel=% reading=43
molecule="CCCCCCCCCCCCCCCC(=O)N[C@@H](Cc1ccc(OCc2ncc(C)c(OC)c2C)cc1)CC(F)P(=O)(O)O (mixture of isomers)" assayedsystem="Autotaxin (Homo sapiens)" property=Activity unitslabel=% reading=68
molecule="CCCCCCCCCCCCCCCC(=O)N1CCCC1C(=O)CP(=O)(O)O (stereo unspecified)" assayedsystem="Autotaxin (Homo sapiens)" property=Activity unitslabel=% reading=18
molecule="CCCCCCCCCCCCCCCC(=O)N[C@@H](C)C(O)CP(=O)(O)O (mixture of isomers)" assayedsystem="Autotaxin (Homo sapiens)" property=Activity unitslabel=% reading=14
molecule="CCCCCCCCCCCCCCCC(=O)N[C@@H](Cc1ccccc1)C(O)CP(=O)(O)O (stereo in doubt; 37)" assayedsystem="Autotaxin (Homo sapiens)" property=Activity unitslabel=% reading=99

Source listed as ChEMBL document CHEMBL1142314.
